Experiment: chemical genetic growth profiling, strain panel (AID 1159580);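 note: tested at 20 µM; growth read once vehicle control cultures reached saturation at 30 °C; 1 = growth at the plate median or of vehicle wells; lower values mean less growth of the strain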
Details: S. cerevisiae deletion strains, growth OD, locus YDL074C, strain BRE1, active compounds read low
Screen size: about 5,500 compounds; about 2,000 (36%) were called active. About 18% were inconclusive and are not listed. Some of the results follow.
reportedEndpoint: normalized growth
Respond numerically, and do not add a unit to the figure.

// query I would be grateful if you could share the reported normalized growth for `COc1cc(C(=O)O)c2c(c1C)OC(=O)c1c(C)cc(O)c(C=O)c1O2` .
// result 0.943

// query normalized growth value for entry COC(=O)CCC(=O)O[C@H]1CCC2(C)C(CCC3C2C(=O)[C@@H](O)C2(C)C3CC3OC4(CCC(C)CO4)[C@@H](C)C32)C1 (some centres undefined)
// result 0.997

// query Fill in the blank: the reported normalized growth of C[C@H](CCC(=O)O)[C@H]1CCC2C3C(CC[C@@]21C)[C@@]1(C)CC[C@@H](O)C[C@H]1C[C@@H]3O (some centres undefined) is ____.
// result 0.946

// query Would you kindly share the measured normalized growth for `CO[C@]12C[C@@H](COC(=O)c3cncc(Br)c3)CN(C)[C@@H]1Cc1cn(C)c3cccc2c13` ?
// result 0.978

// query Recorded normalized growth of CC(=O)O[C@H]1CC[C@]2(C)C3=CC(=O)[C@@]4(C)C(C[C@@H]5OC6(OCC(C)CC6Br)[C@@H](C)[C@@H]54)C3CC[C@H]2C1 (some centres undefined) , please.
// result 1.01

// query May I ask what normalized growth has been recorded for OC1=Cc2c(O)cc(O)cc2OC1(O)c1ccc(O)c(O)c1 (centres undefined) ?
// result 0.962

// query What value of normalized growth has been recorded for this entry: `CCN(CC)CCOC(=O)C(c1ccccc1)c1ccccc1`
// result 1.01

// query May I ask what normalized growth has been recorded for COC(=O)CCC(C)[C@H]1CCC2C3C(C[C@H](O)[C@@]21C)[C@@]1(C)CC[C@@H](O)C[C@H]1C[C@H]3O (some centres undefined) ?
// result 0.983

// query Could you tell me which normalized growth is on file for C[C@]12C=CC(=O)C=C1CCC1C3C[C@@H](O)[C@](O)(C(=O)CO)[C@@]3(C)C[C@H](O)[C@@]12F (some centres undefined) ?
// result 1.04

// query Which normalized growth is listed for C=C1C2CCC3(C)C(c4ccoc4)OC(=O)CC13OC1CC(OC(C)=O)C(C)(C)C(CC(=O)OC)C12C (centres undefined) ?
// result 1.02

// query Fill in the blank: the reported normalized growth of `CN(C(=O)CN(CCO)CC(=O)N(C)C(C)(C)Cc1ccccc1)C(C)(C)Cc1ccccc1` is ____.
// result 0.978

// query For `COc1cc2c(cc1-c1cc3cc4ccoc4cc3oc1=O)OCO2` , what is its reported normalized growth?
// result 1

// query For the compound `CN1CCN(C2=Nc3ccccc3Oc3ccc(Cl)cc32)CC1` , what normalized growth is on record?
// result 0.997

// query Please give the measured normalized growth for this compound: C=C1C(C2(C)C=CC(=O)C(C)(C)C2CC(=O)OC)CC[C@@]2(C)[C@H](c3ccoc3)OC(=O)C3OC132 (some centres undefined)
// result 0.969

// query Report normalized growth for CC[C@H](CCC(C)[C@H]1CCC2C3CCC4C[C@@H](O)CC[C@]4(C)C3CC[C@@]21C)C(C)C (some centres undefined) please.
// result 1

// query I would be grateful if you could share the reported normalized growth for `O=C(O)c1ccccc1C(=O)Nc1ccc(S(=O)(=O)Nc2nccs2)cc1` .
// result 1.01

// query Given CCCCCC1C(=O)CCC1CC(=O)O (centres undefined) , state its recorded normalized growth.
// result 1.01

// query Item C=C1C2=CC(=O)O[C@@H](c3ccoc3)[C@]2(C)CCC1[C@@]1(C)C=CC(=O)C(C)(C)[C@@H]1CC(=O)OC (some centres undefined) has what recorded normalized growth?
// result 1.02

// query # get_value(readout='normalized growth', item= `CCCCSP(=O)(SCCCC)SCCCC` )
// result 1.04

// query Query (compound): `COc1c(Cl)ccc(Cl)c1C(=O)O` ; field requested: normalized growth
// result 1.04

// query Would you kindly share the measured normalized growth for CC(CCC(=O)O)[C@H]1CCC2C3C(C[C@H](O)[C@@]21C)[C@@]1(C)CC[C@@H](O)C[C@H]1C[C@H]3O (some centres undefined) ?
// result 1.02

// query Item `CCCC(CCC)C(=O)O` has what recorded normalized growth?
// result 1

// query Look up normalized growth for this compound: `N[C@H](Cc1ccccc1)C(=O)O`
// result 1.05

// query For CC1CC2C3CC(F)C4=CC(=O)C=CC4(C)C3(F)C(O)CC2(C)C1C(=O)COC(=O)C(C)(C)C (centres undefined) , what is its reported normalized growth?
// result 0.879

// query Quick one: normalized growth for `NNCCc1ccccc1` ?
// result 0.946

// query I'd like to know its normalized growth. The compound in question is `Nc1cc(-c2ccncc2)c[nH]c1=O`
// result 0.913

// query Name the reported normalized growth value associated with the compound CC(=O)OCC(=O)[C@@]1(O)[C@H](OC(C)=O)CC2C3CCC4=CC(=O)C=C[C@]4(C)[C@@]3(F)[C@@H](O)C[C@@]21C (some centres undefined)
// result 0.947

// query Entry under review: CC(=O)O[C@H]1CC[C@]2(C)C3C(=O)[C@@H](OC(C)=O)[C@@]4(C)C(C[C@@H]5O[C@]6(CCC(C)CO6)[C@@H](C)[C@@H]54)C3CC[C@H]2C1 (some centres undefined) . Reported normalized growth?
// result 1.06

// query For `CCCC(C(=O)OCCN(CC)CC)(c1ccccc1)c1ccccc1` , what is its reported normalized growth?
// result 0.997

// query Need normalized growth, item C=C1C2CC[C@@]3(C)[C@H](c4ccoc4)OC(=O)C[C@]13O[C@H]1CC(O)C(C)(C)C(CC(=O)OC)[C@@]21C (some centres undefined)
// result 0.999

// query // lookup normalized growth for `O=C(Nc1ccccc1)c1ccccc1O`
// result 0.904

// query Requested field: normalized growth. Item: CC(CCC(=O)O)[C@H]1CCC2C3CC[C@@H]4C[C@H](O)CC[C@]4(C)C3CC[C@@]21C (some centres undefined)
// result 0.698

// query Quick one: normalized growth for CN1CC(CNC(=O)OCc2ccccc2)CC2c3cccc4c3c(cn4C)CC21 (centres undefined) ?
// result 0.999

// query Entry `CC(=O)Nc1ccccc1` has what normalized growth?
// result 0.963

// query What does the data say about its normalized growth? Entry: `Cc1cccc(Nc2ccncc2S(=O)(=O)NC(=O)NC(C)C)c1`
// result 1.01

// query Quick one: normalized growth of C[C@H](CCC(=O)O)[C@H]1CCC2C3C(CC[C@@]21C)[C@@]1(C)CC[C@@H](O)C[C@H]1C[C@H]3O (some centres undefined) ?
// result 1.09

// query normalized growth for `CN(C)C(=O)Nc1ccc(Cl)c(Cl)c1` ?
// result 0.899

// query // normalized growth lookup, key: `COc1cc2c(cc1/C=C/C(=O)c1cc(OC)c(OC)cc1OC)OCO2`
// result 1.05

// query For the compound shown here, `N#C/C(=C\c1cccc(O)c1)C(=O)O` , give the reported normalized growth.
// result 0.981

---

I'd appreciate it if you could supply normalized growth values for the items below.
Experiment: chemical genetic growth profiling, strain panel (AID 1159580);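 note: tested at 20 µM; growth read once vehicle control cultures reached saturation at 30 °C; 1 = growth at the plate median or of vehicle wells; lower values mean less growth of the strain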
Settings: S. cerevisiae deletion strains, growth OD, locus YOR144C, strain elg1, active compounds read low
Out of some 5,500 compounds screened, about 2,000 (36%) were called active. Inconclusive results (about 18%) are left out. The list shows a part of the results.
API doc: respond with a numeric literal and nothing else, no unit.

// query Fill in: normalized growth of CC(CN(C)C)CN1c2ccccc2Sc2ccccc21 (stereo not drawn) is ___
// result 0.993

// query Would you mind telling me what normalized growth value was observed for `COc1cc(C)c(C(=O)Oc2cc(C)c(C(=O)O)c(O)c2C)c(OC)c1C` ?
// result 1.01

// query Data request, read-out normalized growth, for COC(=O)CCC(C)[C@H]1CCC2C3C(C[C@H](O)[C@@]21C)[C@@]1(C)CC[C@@H](O)C[C@H]1C[C@H]3O (stereo partly drawn)
// result 1.02

// query Can you share its normalized growth? I mean this compound: `COC(=O)c1c(C)cc(OC(=O)c2c(C)c(Cl)c(O)c(C=O)c2O)c(C)c1O`
// result 0.978

// query I'd like to know its normalized growth. The compound in question is `CC(=O)Nc1ccccc1`
// result 0.987

// query Bench note: what normalized growth did `C=C1[C@H]2CC[C@@]3(C)[C@H](c4ccoc4)OC(=O)C[C@]13O[C@H]1C[C@H](O)C(C)(C)[C@H](CC(=O)OC)[C@]12C` show?
// result 1.02

// query Query: normalized growth; subject: CC(CN1c2ccccc2Sc2cccnc21)N(C)C (stereo not drawn)
// result 0.999

// query State the recorded normalized growth for this entry: `CCCC(CCC)C(=O)O`
// result 0.965

// query State the recorded normalized growth for this entry: `COC(=O)c1c(C)cc(OC(=O)c2c(C)cc(O)c(C=O)c2O)c(C)c1O`
// result 1.01

// query Could you share which normalized growth value was measured for `CN1CCN(C2=Nc3ccccc3Oc3ccc(Cl)cc32)CC1` ?
// result 0.996

// query Which normalized growth reading was recorded for the compound `O=c1cc(-c2ccccc2)oc2cc(O)cc(O)c12` ?
// result 0.932

// query What value of normalized growth has been reported for the following compound? `O=C(O)Cc1cc(I)c(Oc2cc(I)c(O)c(I)c2)c(I)c1`
// result 0.947

// query What normalized growth value was documented for this compound, `O=C(Nc1ccccc1)Nc1ccccc1` ?
// result 0.97

// query Param item = `O=c1cc(-c2ccccc2)oc2c(O)c(O)ccc12` ; retrieve measured normalized growth.
// result 0.986

// query Form field: reported normalized growth of `CO[C@]12C[C@@H](COC(=O)c3cncc(Br)c3)CN(C)[C@@H]1Cc1cn(C)c3cccc2c13`
// result 1.01

// query Param item = `Cc1cc(=O)oc2c(O)c(O)ccc12` ; retrieve measured normalized growth.
// result 0.993

// query Reported normalized growth, compound NC(N)=NCCCC(NC(=O)C(N)Cc1ccc(O)cc1)C(=O)O (stereo not drawn) : ____
// result 0.995

// query Quick one: normalized growth of `COc1cc(OC)c(OC)cc1C=O` ?
// result 1

// query Any idea what normalized growth was measured for `N[C@@H]1[C@@H](O)[C@H](O)[C@@H](CO)O[C@H]1O` ?
// result 1

// query Need normalized growth, item CN(C)CCC(c1ccc(Br)cc1)c1ccccn1 (stereo not drawn)
// result 0.99

// query Please give the measured normalized growth for this compound: C[C@H](CCC(=O)O)[C@H]1CCC2C3C(CC[C@@]21C)[C@@]1(C)CC[C@@H](O)C[C@H]1C[C@H]3O (stereo partly drawn)
// result 1.04

// query Given C=C1C(C2(C)C=CC(=O)C(C)(C)C2CC(=O)OC)CC[C@@]2(C)[C@H](c3ccoc3)OC(=O)C3OC132 (stereo partly drawn) , state its recorded normalized growth.
// result 0.98

// query Given `CNCCCN1c2ccccc2CCc2ccccc21` , state its recorded normalized growth.
// result 1

Value source: PubChem BioAssay AID1159580
